- Read-out: Alpha-fetoprotein (AFP) gene, AFP (gene 174)
- test method notes: LTEA_HepaRG_AFP: Life Technologies and Expression Analysis (LTEA) Assay for Alpha-fetoprotein (AFP) gene using HepaRG (AID 2283472)
- applied conditions: mRNA level, 48 h; actives raise or lower the signal
The source made the active and inactive calls. The calls were made as follows: active = hit-call score of the fitted dose curve at least 0.9, where 1 is the maximum; inactive = score below 0.9.
Give one outcome, nothing more. List: active, inactive

Consider the following illustrative entries.
QUERY: Assay result, entry CCCCCCCCCCCCCCCO — outcome?
RESULT: inactive

QUERY: Assay result, entry C1N2CN3CN1CN(C2)C3 — outcome?
RESULT: inactive

QUERY: Assay result, entry CCCCC(CC)COC(=O)c1ccc(C(=O)OCC(CC)CCCC)cc1 (centres undefined) — outcome?
RESULT: inactive

***
QUERY: Assay result, entry CNS(=O)(=O)c1cc(C(=O)N2CCC(CCN3C4CCC3CC(n3c(C)nc5ccccc53)C4)(c3cccc(F)c3)CC2)c(Cl)cc1F (centres undefined) — outcome?
RESULT: active

Taken from PubChem BioAssay (EPA / NIEHS).
